Assay: soluble fraction after stress (log2 fold change); higher = more stays soluble; pooled small domains, quantitative proteomics
Conditions: stress: pH 4
reported.endpoint: soluble fraction (log2)
Lab note: record the figure alone, no unit after it.

Ask: # soluble fraction (log2) lookup, item `HMKIDLPIWLNKKAWEAWVEYKKERKQKLTPSIIKFQLRILEKNKEDHPEIIRNSITNGWTGLFPLK`
Reply: -0.347

Ask: Input `HMSELDASYLGQRVRYVSGFTETDPSEGLVEFRGSNWRARAEHPPLDHSGHWVIVKVESNTLWVEEKSN`
Reply: 0.0761

Ask: Input `HMKSAYADVAIAKVQDYVNVRAENNEDSEVLGKLYNNSAATVLETTDDGWYKISSGSVTGYVKSEYVVVG`
Reply: -1.04

Ask: Input `HMTIPSYAEAVRYVRRQPRINTSTLADGLGIRWSLALDYLERMARSGVVGAIEDDGWWPVAR`
Reply: 0.329

Ask: Input `HMLDKIRTYIDNSFTGVNETKKVKELKDELFENLKEKYNDQIQDGKTEQEAYNSVISGIGDLSELIESVK`
Reply: -0.0804

Ask: Input `HMKKYIEIYNYYKQLIESEQLKSGDKMPSVRKATKIFNVSKTTVQNAYFDLQADGYIIAAPKSGYYVTEM`
Reply: -0.7

Ask: Input `HMSPAVEDYLEQIHNLIAQKGYARVVDIAGNLKISQASVTNMIQRMDADGLVVYERYRGVVLTETGRK`
Reply: -0.456

Ask: Input `HMTNKYSSLVIGTVKTIMEEDQYKNLMGPPLKKEIIKQVDKFTNALPIEFDQNDKDFYVKKILINL`
Reply: -0.299

Ask: Input `HMDLATQHAAKVNAAILAARRFEREGSWRQVAAKYSEALQLMPGNEQASRGYQQAMAMLDERD`
Reply: 0.41

Ask: Input `HMSNNENSILEKLNSFSGKKIKVSHTIGSLAARLDEYPKIKMWLYKRIRENSINEQAYKYLIFIIERKVR`
Reply: -0.0495

Ask: Input `HMENIDVGQDYKVTMNTIQNLMKTGLVTGTQYKELLREMGVHSGMGAITAQQHQIALDFLNKTMDSA`
Reply: -0.444

Ask: Input `HMIHQPNNETTRNLIAGVVKKSLSVWETRVQVDGVDVTTAKDNLAEVHINIRYRLRHNQTPASLGLRLNLG`
Reply: -0.15

Ask: Input `HMFVGVDMAVKEEIGKEGVAFTDLRPAGKVSIGDDVYDAVSETGAFITRGTSVRVLKYQAGQVYVVK`
Reply: 0.354

Ask: Input `HMLTQEEITRRRGEILTAAMGVILRKGFLETSMREIAEAAGVGKSTLYDYFPSKDEIMIAYVVD`
Reply: -0.869

Ask: Input `HMNPMRYLVVPSQETETWKEYLVSKEWLERKYRIETEGDNRAIPLSNLFPKIVPIELSNLEIIEKEAFS`
Reply: -1.09

Ask: Input `HMQDLEIKINLGMTYYEVREAIGSPDIIDKINQYGRDFQMWTYYIDDKTKRYYFEDHLLTKI`
Reply: -1.65

* * *

Test: soluble fraction after stress (log2 fold change); higher = more stays soluble; pooled small domains, quantitative proteomics
Conditions: stress: pH 4
reported.endpoint: soluble fraction (log2)
Lab note: record the figure alone, no unit after it.

Ask: # soluble fraction (log2) lookup, item `HMEGGLIMDRIEKGLQSGVMPDLRGLNLKDALYLLESYVQVQVIGSGGVIKQSIKTGDKFIMGSVIKLEL`
Reply: 0.041

Ask: Input `HMDTNELIDRYVNEVGQHLPRKTRADIEMELRSLLLDTLEEQSGGEPTPKMAAEVLREFGHPEEIAAQYH`
Reply: -0.755

Ask: Input `HMSTRYVRTPAGQAEIQARVFKLSRPVRNLLLVINDSRSIDDWLVQVHGITADDVAMLRAEGLIAEVS`
Reply: -0.214

Ask: Input `HMTVDAVALGRRVRHLRKQAGLTLDQLAERTGVSGSHLSLVENARREPRLSLVQRIAEVLGVPVEDL`
Reply: -0.602

Ask: Input `HMGASVGEVESVKTASEIYTAAAGKIVAVNDAVAKDPSLVNSDPYGNGWLVKLEIADLSAINA`
Reply: -0.304

Ask: Input `HMPESYFEMLQKLLETYALPQEGTIYFSAADLARMPQKFEDVIEQTAQKKGGHLVVSKEPKDMDGGFVLV`
Reply: -1.62

Ask: Input `HMTPATVVIPKVAGQTVAEAKETLKNANFEIGEEKDESSDTVEEGRVIRTDPESGTNRKEGTKINLIVSS`
Reply: 0.0687

* * *

Experiment: soluble fraction after stress (log2 fold change); higher = more stays soluble; pooled small domains, quantitative proteomics
Settings: stress: pH 4
Please go through the items and note down their soluble fraction (log2).
Lab note: record the figure alone, no unit after it.

Ask: # soluble fraction (log2) lookup, item `HMTAVPADVETVTGFTALDRAGLDTLLARLGLAMDLEDLSFLQAYFRDTERRDPTLTEIRVVDTYWSDH`
Reply: -1.44

Ask: Input `HMIMTTKVSGIMFDKFNPSAILNINGMDYLVRSGDIINGYKILSIGQETVTVQYGANVYKASVG`
Reply: -0.603

Ask: Input `HMAGWIPVEERLPDDLTNPITRDAYVYPVTVDLGDVTDIRYYSFWRGHWYNQGPETMDDLVIAWMLLPEPY`
Reply: -0.178

Ask: Input `HMEEIPYGVISAKAGAAAYDYIKKSIELGIEKKIDGVATAPIQKEAIHMAGISYIGHTEMYQGIT`
Reply: 0.0683

Ask: Input `HMSNPADDVVDLLRQLRLPHMRAAAPELLATAKAQRWDPAEAIRALLTEELAGRQASSINARRK`
Reply: -0.226

Ask: Input `HMKAFTKKELQDLVLNIFRASPTTNYNYKQLYKLIRGKDPEIKTLIIAVLLGLEKNGSILQMRPGKYKFS`
Reply: -0.268

Ask: Input `HMFFAGLSPEAARTLDSLPLHSWSSVEQIARQAGLNIETVRKELGLLELSGIALSRQGRFRRA`
Reply: 0.0761

Ask: Input `HMNLDYKQFQVFNNIETLNTFTNLLSDNKIDFEVENNSKIFDPSFANNDFEKEYIVKIHPNDFEKVY`
Reply: -1.32

Ask: Input `HMPRPLVAPMPGLIVRVTAVVGDSVDAGQGLVVMEAMKMENELRTTTAGVVKTVHVQPGVAVEKGALLIEF`
Reply: -0.766

Ask: Input `HMEDLGYVKVASQTAAIRKSAAVQAGQIGTVHEGETYRYLGEEEGWYLVEYNGQKAYISWDDGEL`
Reply: -0.553

Ask: Input `HMEALSAREIEILQALETGASNRELAKMLFISEATVKTHLVHIYQKLGVGTRTAAITEARERRV`
Reply: -0.237

Ask: Input `HMTDLNDTQIKILELLSADASLSAAKMAGQLGIAGRNVEANIKKLKEKGILIRHGSPKSGYWEIVN`
Reply: 0.0328

Ask: Input `HMVDSLTIGRRIRQLRTERGMTLEELAAAVGRAPSQLSMIENGRREPKLTLLQAIARALGSTLDALLE`
Reply: -0.404

Ask: Input `HMTSVFQNSDGTWGHLTKTVNPLIYTIEYGRRTGFSSREEAEESYQRSLTSYQDQLSKLKKERD`
Reply: 0.223

Ask: Input `HMRHYVLKENNGVIAIYKVNQENEAVFKENTQIQVQYLPEVDLINLKKGIYAIGEEKLNSILEDF`
Reply: -0.892

Ask: Input `HMISFLNFVRKEIDASQLKDSTKQNHLTTIGLLQSFKPSIEFKDLNYNFITSFEKYLYDAGYQM`
Reply: 0.105

* * *

Please go through the items and note down their soluble fraction (log2).
Assay: soluble fraction after stress (log2 fold change); higher = more stays soluble; pooled small domains, quantitative proteomics
Details: stress: pH 4
Lab note: record the figure alone, no unit after it.

Ask: # soluble fraction (log2) lookup, item `HMDRVTYPVSFNGKVRFQLELDAGMNAKEVETAALGHEKTAAQIEGKTIRKVIVVPGRIINIVV`
Reply: -0.404

Ask: Input `HMSRARSRQTSMLEAVAGLGPARRRALLKQFGGLQGVLRAGIEDLSRAPGIGPALAQAIFEHLHPGA`
Reply: -0.0797

Ask: Input `HMKSVTVIFKESGNVVSSKKLSVVATAQYVDKSRITAPAGYRIATTDSKLKISENNTVTVEVK`
Reply: -0.1

Ask: Input `HMSVDAMDEANERKMAKTFNMIVLGGLLKIRPIVSIESVIKALRKTLPERHHHLIPMNEEAIHIGMDII`
Reply: -0.288

Ask: Input `HMGPSEVTLDNFVGKNYTDVVNDTSYQFTFKKEEKSDQTHAAGIIIAQSPKKGIKVKSNSTVTLTVSTG`
Reply: 0.216

Ask: Input `HMFIEPPSLEELERRLRGRGTETDDVVDMRMRTALVELSQKMEYDYRLVNDDLDEATRQLVAYVNEIAEQ`
Reply: -0.679

Ask: Input `HMSRVFSPSELEIRHAQDVFQALEEAKRQGKGAVSLNGKMIDAPIVARAKLVLEAAAAIYGED`
Reply: -0.202

Ask: Input `HMSFGWESLENKEGVADTDLHPSGWVRIEDSRIFVVSEGDFINKGSKVTVLTVDGNRVVVRELI`
Reply: -1.79
